- System: ragweed (common ragweed, Ambrosia elatior)
- EXPERIMENT DESCRIPTION: Test A postemergence
- Type: in vivo
- MEASUREMENT PARAMETERS: Ambrosia artemisiifolia, post-emergence, 240 h, 125 g ai/ha, postemergence, visual injury vs untreated controls after approx. 10 d; 0 = no effect, 100 = complete control; read-out: Ragweed plant response rating (0 to 100 scale)
Provide the recorded pest or weed control at 125 g/ha for the entries that follow.
Give the value, in units of %, as a plain number.

# pest or weed control at 125 g/ha of CN1C[C@H](c2ccc3c(c2)OC(F)(F)O3)[C@@H](C(=O)Nc2ccc(F)c(F)c2F)C1=O [Compound 1204] = 20

# pest or weed control at 125 g/ha of CN1C[C@H](c2ccc(F)c(C#N)c2)[C@@H](C(=O)Nc2ccccc2F)C1=O [Compound 1254] = 0

# pest or weed control at 125 g/ha of CN1C[C@H](c2ccc(Cl)c(F)c2)[C@@H](C(=O)Nc2cccc(F)c2F)C1=O [Compound 1265] = 30

# pest or weed control at 125 g/ha of Cc1c(F)cccc1NC(=O)[C@H]1C(=O)N(C)C[C@@H]1c1ccc(F)c(Br)c1 [Compound 1211] = 0
